Each item that follows carries a reported max response.
- System: HEK293
- protocolDetails: Cytotoxic Profiling of Annotated Libraries Using Quantitative High-Throughput Screening (AID 1296008); also: % is scaled to controls: 0 for no effect and ±100 for the full control effect; nearly all actives have a fitted effect of over 60% in size
- statedConditions: Five cell lines viability, CellTiter-Glo ATP luminescence, 48-72 h; active compounds read low
Inconclusive results are not listed. Active and inactive are the calls of the source. Calls follow the shape of the dose curve; as a rule, active = well fitted inhibition curve with a large enough effect; inconclusive = small, poorly fitted or top-dose-only effect; inactive = flat fitted curve, though single readings scatter.

>  <compound>
C[C@@H]1O[C@@H](O[C@H]2[C@@H]3C=CO[C@@H](O[C@@H]4O[C@H](CO)[C@@H](O)[C@H](O)[C@H]4O)[C@@H]3[C@@]3(CO)O[C@@H]23)[C@H](O)[C@H](OC(=O)/C=C/c2ccc(O)cc2)[C@H]1OC(=O)/C=C/c1ccc(O)cc1

>  <targetDesc>
HEK293

>  <max response>
-0.28% (inactive)

$$$$
>  <compound>
C=Cc1ccc(O[C@@H]2O[C@H](CO[C@@H]3O[C@@H](C)[C@H](O)[C@@H](O)[C@H]3O)[C@@H](O)[C@H](O)[C@H]2O)cc1

>  <targetDesc>
HEK293

>  <max response>
-5.77% (inactive)

$$$$
>  <compound>
Cc1onc(-c2c(Cl)cccc2Cl)c1CC(=O)NCc1ccc(OCC(F)(F)F)nc1

>  <targetDesc>
HEK293

>  <max response>
-15.1% (inactive)

$$$$
>  <compound>
C/C=C(\C)C(=O)OC1C2(O)CC3=C4CC(=O)OC(c5ccoc5)C4(C)CCC3C(C)(C2=O)C(C(OC(C)=O)C(=O)OC)C1(C)C (stereo not given)

>  <targetDesc>
HEK293

>  <max response>
-2.36% (inactive)

$$$$
>  <compound>
COC1OC(O)C2(CCC3(O2)C(C)CC2OC(=O)C4(C)CCCC3(C)C24)C1O (stereo not given)

>  <targetDesc>
HEK293

>  <max response>
-1.02% (inactive)

$$$$
>  <compound>
OC[C@H]1O[C@@H](OCCc2ccccc2)[C@H](O)[C@@H](O)[C@@H]1O

>  <targetDesc>
HEK293

>  <max response>
3.92% (inactive)

$$$$
>  <compound>
COC(=O)C1=CO[C@@H](O[C@@H]2O[C@H](CO)[C@@H](O)[C@H](O)[C@H]2O)[C@@H]2[C@@H](C)[C@@H](O)C(O)[C@H]12 (stereo not given in full)

>  <targetDesc>
HEK293

>  <max response>
-12.7% (inactive)

$$$$
>  <compound>
CC1=C2C(=O)C=C(CO[C@@H]3O[C@H](CO)[C@@H](O)[C@H](O)[C@H]3O)[C@@H]2[C@H]2OC(=O)[C@H](C)[C@@H]2CC1

>  <targetDesc>
HEK293

>  <max response>
3.74% (inactive)

$$$$
>  <compound>
C=C(C)C1CCC2(C(=O)OC3OC(COC4OC(CO)C(O)C(O)C4O)C(OC4OC(C)C(O)C(O)C4O)C(O)C3O)CCC3(C(=O)O)C(CCC4C5(C)CCC(=O)C(C)(C)C5CCC43C)C12 (stereo not given)

>  <targetDesc>
HEK293

>  <max response>
-21.3% (inactive)

$$$$
>  <compound>
C[C@@H]1O[C@@H](OC(=O)Cc2ccccc2)[C@H](O)[C@H](O)[C@H]1O

>  <targetDesc>
HEK293

>  <max response>
-2.15% (inactive)

$$$$
>  <compound>
CC1=C[C@H]2[C@@H](CC1=O)[C@H](C)C[C@H](O)[C@H]2C(C)C

>  <targetDesc>
HEK293

>  <max response>
-24.5% (inactive)

$$$$
>  <compound>
C=C1CCC2[C@](C)(CCC[C@]2(C)C(=O)O)[C@H]1CC/C(C)=C/C(=O)OC (stereo not given in full)

>  <targetDesc>
HEK293

>  <max response>
-8.16% (inactive)

$$$$
>  <compound>
Cc1cc(CNC(=O)c2cc(C(=O)NCc3ccc(F)c(C)c3)ncn2)ccc1F

>  <targetDesc>
HEK293

>  <max response>
1.88% (inactive)

$$$$
>  <compound>
C/C=C1\[C@H](O[C@@H]2O[C@H](CO)[C@@H](O)[C@H](O)[C@H]2O)OC=C(C(=O)O)[C@H]1CC(=O)OCCc1ccc(O)cc1

>  <targetDesc>
HEK293

>  <max response>
-5.51% (inactive)

$$$$
>  <compound>
C[C@H]1CC[C@@]2(OC1)O[C@H]1CC3C4CC[C@H]5C[C@@H](O)CC[C@]5(C)C4CC(=O)[C@]3(C)[C@H]1[C@@H]2C (stereo not given in full)

>  <targetDesc>
HEK293

>  <max response>
-2.47% (inactive)

$$$$
>  <compound>
C=C(C(=O)O)C1CC(O)C2(C)CCCC(C)(O)C2C1 (stereo not given)

>  <targetDesc>
HEK293

>  <max response>
-8.07% (inactive)

$$$$
>  <compound>
COc1ccc(CCC(=O)c2c(O)cc(O[C@@H]3O[C@H](CO)[C@@H](O)[C@H](O)[C@H]3O[C@@H]3O[C@@H](C)[C@H](O)[C@@H](O)[C@H]3O)cc2O)cc1O

>  <targetDesc>
HEK293

>  <max response>
0.838% (inactive)

$$$$
>  <compound>
Cc1nc2cc(-c3cc(F)cc(C#N)c3)ccc2s1

>  <targetDesc>
HEK293

>  <max response>
-12.9% (inactive)

$$$$
>  <compound>
Nc1nc(COC(=O)c2ccc([N+](=O)[O-])cc2)nc(Nc2ccccc2)n1

>  <targetDesc>
HEK293

>  <max response>
-16.5% (inactive)

$$$$
>  <compound>
COC(=O)C1=COC(OC2OC(CO)C(O)C(O)C2O)C2C(C)CC(=O)C12O (stereo not given)

>  <targetDesc>
HEK293

>  <max response>
2.83% (inactive)

$$$$
>  <compound>
COC(=O)c1c(CC=C(C)C)c(OC2OC(CO)C(O)C(O)C2O)c2ccccc2c1OC1OC(CO)C(O)C(O)C1O (stereo not given)

>  <targetDesc>
HEK293

>  <max response>
-10.1% (inactive)

$$$$
>  <compound>
C=CC(C)(O)CC/C=C(\C)COC1O[C@H](CO)[C@@H](O)[C@H](O)[C@H]1O (stereo not given in full)

>  <targetDesc>
HEK293

>  <max response>
0.0631% (inactive)

$$$$
>  <compound>
CC[C@@H]1C(=O)O[C@]23C=C[C@@H]4C(C(=O)OC)=CO[C@H](O[C@@H]12)[C@@H]43

>  <targetDesc>
HEK293

>  <max response>
-18.1% (inactive)

$$$$
>  <compound>
C[C@@H]1CC[C@]2(C(=O)O[C@@H]3O[C@H](CO[C@@H]4O[C@H](CO)[C@@H](O[C@@H]5O[C@@H](C)[C@H](O)[C@@H](O)[C@H]5O)[C@H](O)[C@H]4O)[C@@H](O)[C@H](O)[C@H]3O)CC[C@]3(C)C(=CCC4[C@@]5(C)C[C@@H](O)[C@H](O)[C@@](C)(CO)C5CC[C@]43C)C2[C@H]1C (stereo not given in full)

>  <targetDesc>
HEK293

>  <max response>
-0.975% (inactive)

$$$$
>  <compound>
O=C(OC[C@H]1O[C@@H](Oc2ccccc2COC(=O)C2(O)C=CCCC2O)[C@H](O)[C@@H](O)[C@@H]1O)c1ccccc1 (stereo not given in full)

>  <targetDesc>
HEK293

>  <max response>
-3.05% (inactive)

$$$$
>  <compound>
O=C(O)[C@H]1Cc2ccccc2CN1

>  <targetDesc>
HEK293

>  <max response>
4.72% (inactive)

$$$$
>  <compound>
Nc1ncnc2c1c(COc1cccc(Cl)c1)nn2C1CCOCC1

>  <targetDesc>
HEK293

>  <max response>
-4.69% (inactive)

$$$$
>  <compound>
C[C@@H]1C[C@@H](O)[C@@]2(CO)C(CO)=CCC[C@@H]2[C@@]12C[C@@H](c1ccoc1)OC2=O

>  <targetDesc>
HEK293

>  <max response>
4.88% (inactive)

$$$$
>  <compound>
C[C@@H]1[C@H](O)[C@@H]2OC(=O)C3=C2[C@H](CCC3)[C@@]12C[C@@H](c1ccoc1)OC2=O

>  <targetDesc>
HEK293

>  <max response>
-1.21% (inactive)

$$$$
>  <compound>
CC(C)c1ccc2c(c1)C(O)CC1C(C)(C(=O)O)CCCC21C (stereo not given)

>  <targetDesc>
HEK293

>  <max response>
2.95% (inactive)

$$$$

The measured values listed here are drawn from PubChem BioAssay (NCATS).
